Test system: VA-ES-BJ
test-summary: relative viability vs DMSO control (72 h) (fraction); higher = more viable cells
conditions-used: 10 µM
reported-metric: relative viability
API doc: respond with a numeric literal and nothing else, no unit.

Reference set (8 entries):
[[record]]
line_notation = "CC[C@@H]1CN(C(=O)NCC(F)(F)F)C[C@@H]1c1cnc2cnc3[nH]ccc3n12"
study_target = "VA-ES-BJ"
quantitative_readout = 0.995

[[record]]
line_notation = "CCN(CC)CCNC(=O)c1c(C)[nH]c(/C=C2\\C(=O)Nc3ccc(F)cc32)c1C"
study_target = "VA-ES-BJ"
quantitative_readout = -0.00367

[[record]]
line_notation = "CC(C)(O)CNc1nc(Nc2ccnc(C(F)(F)F)c2)nc(-c2cccc(C(F)(F)F)n2)n1"
study_target = "VA-ES-BJ"
quantitative_readout = 0.976

[[record]]
line_notation = "Cn1cc(C2=C(c3cn(C4CCN(Cc5ccccn5)CC4)c4ccccc34)C(=O)NC2=O)c2ccccc21"
study_target = "VA-ES-BJ"
quantitative_readout = 1.21

[[record]]
line_notation = "Cc1cc2c(F)c(Oc3ncnn4cc(OC[C@@H](C)O)c(C)c34)ccc2[nH]1"
study_target = "VA-ES-BJ"
quantitative_readout = 1.07

[[record]]
line_notation = "COc1cc(OC)c(/C=C/S(=O)(=O)Cc2ccc(OC)c(NCC(=O)O)c2)c(OC)c1"
study_target = "VA-ES-BJ"
quantitative_readout = 0.299

[[record]]
line_notation = "C[C@]12O[C@H](C[C@]1(O)CO)n1c3ccccc3c3c4c(c5c6ccccc6n2c5c31)CNC4=O"
study_target = "VA-ES-BJ"
quantitative_readout = -0.00757

[[record]]
line_notation = "CCc1cnn2c(NCc3ccc[n+]([O-])c3)cc(N3CCCC[C@H]3CCO)nc12"
study_target = "VA-ES-BJ"
quantitative_readout = 0.247


Request: relative viability, test system VA-ES-BJ, entry O=S(=O)(c1cccc2cnccc12)N1CCCNCC1 0.95

Field entry: CC(C)(C)c1nc(-c2cccc(NS(=O)(=O)c3c(F)cccc3F)c2F)c(-c2ccnc(N)n2)s1 0.582

The origin of these recorded values is the supplement of paper PMC10883282.
